pKi: −log10 of the molar value.
Measurement record for human histamine H3 receptor (Homo sapiens); quantity recorded: pKi.
measurement type: pKi

Consider the following illustrative entries.
Query string: Name the reported pKi value associated with the molecule c1cc(N2CCC(NC3CCCCC3)CC2)ccc1CN1CCOCC1
Result string: 7.55

Query string: Name the reported pKi value associated with the molecule c1cc(N2CCC(CN3CCOCC3)CC2)ccc1CN1CCCC1
Result string: 8.70

[I] c1cc(N2CCC(CN3CCCCC3)CC2)ccc1CN1CCCCC1
[II] c1ccc(NCC2CCN(c3ccc(CN4CCCC4)cc3)CC2)cc1
Query string: Determine, for I and II , which has the greater value of pKi. Indicate which entry you chose by stating its label.
Result string: I
(I: 8.60, II: 8.10)
